- Tgt: T1, human TL1A extracellular domain with N-terminal HIS and FLAG tag (human) (UniProt O95150)
- T1 sequence: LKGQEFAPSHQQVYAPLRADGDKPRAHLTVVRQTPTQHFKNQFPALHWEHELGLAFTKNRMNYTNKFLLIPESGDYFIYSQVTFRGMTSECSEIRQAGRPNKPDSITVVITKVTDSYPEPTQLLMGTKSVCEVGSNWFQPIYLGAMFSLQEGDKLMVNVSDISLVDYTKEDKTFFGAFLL
- Run description: cell-based or functional assay
Catalogue of Antibody IC50, TL1A induced caspase potency assay in TF-1 cells readings, one per entry.
The reply should read as a number followed by its unit.

Binder | Measured result
320-445 (antibody, human IgG1, name in Kabat numbering, V domains shown, human IgG1, lambda) VH: QVQLVQSGAEVKKPGASVKVSCKASGYTFTSWDINWVRQAPGQGLEWMGWLNPNSGNTGYAQKFQGRVTMTADRSTSTAYMELSSLRSEDTAVYYCAREVPETAAFEYWGQGTLVTVSS VL: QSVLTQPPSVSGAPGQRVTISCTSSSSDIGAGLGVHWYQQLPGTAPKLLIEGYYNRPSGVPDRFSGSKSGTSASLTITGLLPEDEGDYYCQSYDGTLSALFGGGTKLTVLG | 0.03 µg/mL

# ---- query binder ----
Prompt line: Which Antibody IC50, TL1A induced caspase potency assay in TF-1 cells is reported for this binder? 320-205 (antibody, human IgG1, name in Kabat numbering, V domains shown, human IgG1, lambda) VH: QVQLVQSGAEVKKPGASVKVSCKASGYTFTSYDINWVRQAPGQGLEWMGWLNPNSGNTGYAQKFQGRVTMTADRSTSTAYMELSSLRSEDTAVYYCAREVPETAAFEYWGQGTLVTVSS VL: QSVLTQPPSVSGAPGQRVTISCTKSSSDIGAGLGVHWYQQLPGTAPKLLIEGYYNRPSGVPDRFSGSKSGTSASLTITGLLPEDEGDYYCQSYDGTLSALFGGGTKLTVLG
Response line: 0.02 µg/mL

All values here come from patent US20170081400A1.
